B1: Ankyrin repeat and SAM domain-containing protein 6, residues 774 to 836; numbered along this chain, Q68DC2 (parent)
chain: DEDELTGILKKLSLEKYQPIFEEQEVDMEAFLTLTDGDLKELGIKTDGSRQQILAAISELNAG

variants of: B1; experiment: abundance fitness (aPCA) (normalised: wild type 0, dead -1); higher = more abundant; growth selection in yeast, the domain comes from the species named; conditions: Homo sapiens
abundance fitness below -0.3 gives not satisfied; abundance fitness at or above it gives satisfied.

For this variant, is measured abundance fitness -0.3 or higher? D47E
satisfied

For this variant, is measured abundance fitness -0.3 or higher? A55Q
satisfied

For this variant, is measured abundance fitness -0.3 or higher? D3H
satisfied

For this variant, is measured abundance fitness -0.3 or higher? I57E
not satisfied

For this variant, is measured abundance fitness -0.3 or higher? L12R
not satisfied

For this variant, is measured abundance fitness -0.3 or higher? G48K
satisfied

For this variant, is measured abundance fitness -0.3 or higher? Q18Y
not satisfied

For this variant, is measured abundance fitness -0.3 or higher? A55N
satisfied

For this variant, is measured abundance fitness -0.3 or higher? G7W
satisfied

For this variant, is measured abundance fitness -0.3 or higher? L14E
not satisfied

For this variant, is measured abundance fitness -0.3 or higher? G43D
satisfied

For this variant, is measured abundance fitness -0.3 or higher? L32D
not satisfied

For this variant, is measured abundance fitness -0.3 or higher? K45Q
satisfied

For this variant, is measured abundance fitness -0.3 or higher? E23G
satisfied

For this variant, is measured abundance fitness -0.3 or higher? E4W
not satisfied

For this variant, is measured abundance fitness -0.3 or higher? I53T
not satisfied

For this variant, is measured abundance fitness -0.3 or higher? M28Y
satisfied

For this variant, is measured abundance fitness -0.3 or higher? L9V
not satisfied

For this variant, is measured abundance fitness -0.3 or higher? E41W
not satisfied

For this variant, is measured abundance fitness -0.3 or higher? Q18I
satisfied

For this variant, is measured abundance fitness -0.3 or higher? L5K
not satisfied

For this variant, is measured abundance fitness -0.3 or higher? E15M
satisfied

Provenance of the data: the Human Domainome abundance scans (Beltran et al. 2025)
